# protocol.description: NCI Yeast Anticancer Drug Screen. Data for the CLN2oe strain (AID 163);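 also: 0% = growth of vehicle-only control cultures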
# particulars: S. cerevisiae CLN2oe strain, at 1.2 µM, active compounds read high
Compounds without any hit were thinned out: in the full panel of roughly 79,000, 15% have a hit.
Answer each item with its documented growth inhibition.
Express your answer in %, writing the number without its unit.

The recorded growth inhibition for O=C(OCCN1CCCCCC1)C(c1ccsc1)C1CCCCC1 (stereo not drawn) is 10

The recorded growth inhibition for CCCS(=O)(=O)Nc1ccc(Nc2c3ccccc3nc3ccccc23)c(OC)c1 is -9

The recorded growth inhibition for CCCCCCCCCCCCCCCCCCNC is 13

The recorded growth inhibition for CCNc1nnc(CSc2nc(-c3ccccc3)c(-c3ccccc3)[nH]2)s1 is 5

The recorded growth inhibition for Cc1ccc(Nc2nc3c(=O)n(C)c(=O)n(C)c3nc2Nc2ccc(C)cc2)cc1 is -2

The recorded growth inhibition for Clc1ccc(SC(/C=C/NNC2=NC(c3ccccc3)C(c3ccccc3)=NN2)c2ccccc2)cc1 (stereo not drawn) is -9

The recorded growth inhibition for CCOC(=O)[C@H]1Nc2ccccc2C2c3ccccc3CC21 (stereo partly drawn) is 5

The recorded growth inhibition for CN1c2ccc(Cl)cc2C(=O)NC1c1ccc([N+](=O)[O-])s1 (stereo not drawn) is 4

The recorded growth inhibition for CC/C(=C(\c1ccccc1)c1ccc(OCCN(C)C)cc1)c1ccccc1 is 4

The recorded growth inhibition for COc1ccc(Br)c(C(=O)Sc2nnnn2-c2cccc(Cl)c2)c1 is 6

The recorded growth inhibition for O=[N+]([O-])c1ccc2c(c1)C(N1CCN(CCO)CC1)Cc1ccc(F)cc1S2 (stereo not drawn) is -6

The recorded growth inhibition for CN1Cc2ccccc2/C=C\c2ccccc21 is 0

The recorded growth inhibition for O=C1c2ccccc2-c2n[nH]c3cccc1c23 is -52

The recorded growth inhibition for CCC(C(=O)O)C1=C(c2ccccc2)CCc2ccccc21 (stereo not drawn) is 14

The recorded growth inhibition for c1ccc2c(c1)Oc1cccc3cccc-2c13 is 18

The recorded growth inhibition for OCC(Cn1cncn1)(c1ccc(F)cc1F)n1cncn1 (stereo not drawn) is 29

The recorded growth inhibition for CN(N=O)N1C(=O)SCC(c2ccccc2)(c2ccccc2)C1=O is -1

The recorded growth inhibition for C=C(CN(C)C)C(=O)c1cc(C)ccc1C is 10

The recorded growth inhibition for CCC#CCCCOC(=O)c1cc([N+](=O)[O-])cc([N+](=O)[O-])c1 is -5

The recorded growth inhibition for CCOC(=O)C1=C(C(=O)c2ccccc2)C(c2ccccc2[N+](=O)[O-])C(C(=O)c2ccccc2)=C(C(=O)OCC)N1 is 0

The recorded growth inhibition for CCCCCCCCCCCC1=C(O)C(=O)C=C(O)C1=O is -7

The recorded growth inhibition for Cc1cc(O)cc(O)c1N=Nc1ccc([N+](=O)[O-])cc1 is 24

The recorded growth inhibition for Cc1ccc(C2C(Cl)C(=O)N2n2cnc3ccccc3c2=O)cc1 (stereo not drawn) is -23

---

Answer each item with its documented growth inhibition.
# protocol.description: NCI Yeast Anticancer Drug Screen. Data for the sgs1 strain (AID 173);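 also: 0% = growth of vehicle-only control cultures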
# particulars: S. cerevisiae sgs1 mutant, at 100.0 µM, active compounds read high
The panel holds about 79,000 compounds, 15% with a hit somewhere; the sample as a whole holds those more often.
Express your answer in %, writing the number without its unit.

The recorded growth inhibition for O=C(NCCCCCCCN1CCCCCCC1)C(C1CCCCC1)C1CCCCC1 is 99

The recorded growth inhibition for O=[N+]([O-])/C=C/c1ccc2ccccc2c1 is 100

The recorded growth inhibition for O=[N+]([O-])c1ccc([N+]2=NC(c3ccccc3)=NN(c3ccccc3)C2)cc1 is 91

The recorded growth inhibition for O=C1CSC(/C=C/c2ccccc2)N1c1ccc(-c2ccc(-n3c(-c4ccccc4)nc4ccccc4c3=O)cc2)cc1 (stereo not given) is 61

The recorded growth inhibition for COc1ccc(OC)c2cc3ccccc3cc12 is 7

The recorded growth inhibition for OCC1OC(OCC(O)C(O)C(O)C(/C=N/Nc2ccccc2)=N/Nc2ccccc2)C(O)C(O)C1O (stereo not given) is 35

The recorded growth inhibition for COc1ccc(/C(C)=N/OC(=O)c2c(-c3ccccc3Cl)noc2C)cc1CN1CCOCC1 is 78

The recorded growth inhibition for CCOP(=O)(OCC)C(Cc1ccccc1)N=C(c1ccccc1)c1ccccc1 (stereo not given) is 97

The recorded growth inhibition for O=C(c1cc(Br)ccc1O)c1cc(Br)ccc1O is 100

The recorded growth inhibition for COc1ccc(/C=C2\SC(=S)N(/C=C/c3nc4ccccc4[nH]c3=O)C2=O)cc1OC is 94
